- Experimental protocol: HepG2 cell viability effects, profiling panel, calcein-AM fluorescence, 48 h, basal (AID 1164); further: test concentration not given here
- Condition parameters: higher = more signal
Overview of recorded z-score for various compounds

>  <Compound>
COc1ccc(C(O)C2C=CC3C(=O)N(Cc4ccccc4)C(=O)C3N2n2cnnc2)cc1OCc1ccccc1 (configuration not stated)

>  <z-score>
-0.345

$$$$
>  <Compound>
COc1ccccc1CN1C(=O)c2ccccc2[C@@H](C(=O)NC2CC2)[C@@H]1c1ccc(CO)cc1

>  <z-score>
1.26

$$$$
>  <Compound>
C=CCNC(=O)[C@H]1[C@@H]2C(=O)O[C@@H](c3ccccc3)[C@@H](c3ccccc3)N2[C@@H](c2ccccc2OCCO)[C@]12C(=O)Nc1ccc(C#CCC(C(=O)OC)C(=O)OC)cc12

>  <z-score>
-0.845

$$$$
>  <Compound>
C=C(CCCC)/C(=C/C[C@H](OC(=O)c1ccncc1)c1ccccc1OCCO)c1cnc2ccccc2c1

>  <z-score>
0.0722

$$$$
>  <Compound>
CCOC(=O)C[C@H]1[C@H](OC(=O)c2ccc(C(=O)c3ccccc3)cc2)[C@@H](NC(=O)c2ccc3ccccc3n2)c2cc(OCCCO)ccc2N1C(=O)c1ccccc1

>  <z-score>
0.376

$$$$
>  <Compound>
C[C@H]1NC(=O)[C@@]23C(=O)N[C@@H](Cc4ccccc4)C2[C@H](C)[C@@]2(C)O[C@H]2C3/C=C/C/C=C\CNC(=O)[C@@H]2CCCN2C1=O (some centres not stated)

>  <z-score>
-0.0389

$$$$
>  <Compound>
NC(=O)NCC#Cc1ccc2c(c1)[C@]1(C(=O)N2)[C@H](c2ccccc2OCCO)N2[C@H](c3ccccc3)[C@H](c3ccccc3)OC(=O)[C@H]2[C@@H]1C(=O)Nc1nc2ccccc2s1

>  <z-score>
-0.126

$$$$

* * *

- Experimental protocol: E. coli acrAB mutant growth effects, primary screen, E. coli filamentation inducers, strain DRC39, OD650, 48 h (AID 1179);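 further: screen aims at cell division blockers that make cells filament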
- Condition parameters: E. coli DRC39 delta-acrAB growth, higher = more signal, called active from +8 up or from −8 down
The label depends only on z-score: Y if it is at least -0.2, N if it is smaller.

>  <Compound>
COC(=O)[C@@]1(Cc2ccc(F)cc2)[C@H]2c3cc(C(=O)N4CCCC4)n(CCCNc4ncc(C(F)(F)F)cc4Cl)c3C[C@H]2CN1C(=O)c1ccccc1

>  <Assigned label>
N

$$$$
>  <Compound>
COC(=O)[C@@]1(Cc2ccc(F)cc2)[C@H]2c3cc(C(=O)N4CCCC4)n(Cc4ccc(S(C)(=O)=O)cc4)c3C[C@H]2CN1C(=O)c1ccccc1

>  <Assigned label>
N

$$$$
>  <Compound>
COc1cc2c(cc1OC)CN(C(=O)[C@H]1[C@@H]3C(=O)O[C@@H](c4ccccc4)[C@@H](c4ccccc4)N3[C@@H](c3ccc(O)cc3)[C@]13C(=O)Nc1ccccc13)CC2

>  <Assigned label>
Y

$$$$
>  <Compound>
O=C1O[C@@H](c2ccccc2)[C@@H](c2ccccc2)N2[C@@H](c3ccccc3OCCO)[C@]3(C(=O)Nc4ccc(C#CC5=CCCCC5)cc43)[C@@H](C(=O)N3CCCCCCC3)[C@H]12

>  <Assigned label>
N

$$$$
>  <Compound>
CN1C(=O)C2C=CC(C(O)c3ccco3)N(Nc3ccccc3)C2C1=O (stereo not given)

>  <Assigned label>
Y

$$$$
>  <Compound>
C=CCC(OC(C)=O)[C@@H]1[C@@H](N(Cc2ccc(-c3cccc(C(F)(F)F)c3)o2)C(=O)c2ccc(C)cc2)c2cc(OCCCO)ccc2N1C(=O)Cc1ccc2ccccc2c1 (stereo not given in full)

>  <Assigned label>
Y

$$$$
>  <Compound>
COc1cc(Br)cc(C(O)C2C=CC3C(=O)N(C)C(=O)C3N2N2CCCCC2)c1OC (stereo not given)

>  <Assigned label>
N

$$$$
>  <Compound>
O=C1C[C@]2(c3ccc([N+](=O)[O-])cc3)C(=O)N(CC(F)(F)F)c3cc(CO)ccc3[C@H]2N1C1CCCCC1

>  <Assigned label>
Y

$$$$
>  <Compound>
O=C1C2C=CC(C(O)c3cc(C(F)(F)F)cc(C(F)(F)F)c3)N(n3cnnc3)C2C(=O)N1Cc1ccccc1 (stereo not given)

>  <Assigned label>
Y

$$$$
>  <Compound>
Oc1ccc2cc[n+](Cc3sc4ccccc4c3Cl)cc2c1

>  <Assigned label>
N

$$$$
>  <Compound>
Cc1ccc([C@@H]2C[C@@H](Sc3ccccc3)[C@H](C(=O)O)CN2S(=O)(=O)c2ccc(C)cc2)cc1

>  <Assigned label>
N

$$$$
>  <Compound>
O=C(OCc1ccccc1)C1=CCC2c3[nH]c4ccccc4c3C(=O)C1N2S(=O)(=O)c1ccccc1[N+](=O)[O-] (stereo not given)

>  <Assigned label>
N

$$$$
>  <Compound>
COC(=O)[C@H](Cc1ccccc1)N1CC2=C[C@@H](C3CC3)n3c(=O)n(C)c(=O)n3[C@H]2[C@@H]1[C@@H](O)Cc1ccccc1

>  <Assigned label>
N

$$$$
>  <Compound>
CCOC(=O)C[C@H]1[C@H](OC(=O)c2ccc(C(=O)c3ccccc3)cc2)[C@@H](NC(=O)c2ccccc2)c2cc(OCCCO)ccc2N1C(=O)Cc1ccc(OC)cc1

>  <Assigned label>
Y

$$$$
>  <Compound>
C=CCN1C(=O)[C@@]2(CC=C)N=C(c3ccc(OCCCO)cc3)O[C@H]2c2ccccc21

>  <Assigned label>
Y

$$$$

* * *

- Tested on: Torsin-1A (Homo sapiens) (UniProt O14656)
- Sequence (O14656 whole entry, looked up): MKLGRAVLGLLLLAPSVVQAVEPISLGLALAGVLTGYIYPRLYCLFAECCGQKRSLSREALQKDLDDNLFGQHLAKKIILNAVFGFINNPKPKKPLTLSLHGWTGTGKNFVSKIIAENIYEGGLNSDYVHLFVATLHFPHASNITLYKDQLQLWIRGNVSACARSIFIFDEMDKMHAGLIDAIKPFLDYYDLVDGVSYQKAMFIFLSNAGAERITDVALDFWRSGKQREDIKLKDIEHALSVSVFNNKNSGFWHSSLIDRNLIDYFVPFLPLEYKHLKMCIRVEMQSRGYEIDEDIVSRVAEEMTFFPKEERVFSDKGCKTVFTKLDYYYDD
- Experimental protocol: torsin A binders from cell lysate, primary screen, small-molecule microarray, wild-type, 635/667 nm (AID 1149)
- Condition parameters: COS7 hTOR1A-WT lysate, 635 nm fluorescence, higher = more signal
The label depends only on composite z-score: class 1 if it is at least 0.5, class 0 if it is smaller.

>  <Molecule>
C[N+](C)(C)CCCCNC(=O)[C@@H]1C[C@@H]2C(=O)N[C@@H](Cc3ccccc3)C(=O)N2[C@@H]1c1cccc(OCCO)c1

>  <Tested on>
Torsin-1A (Homo sapiens) (UniProt O14656)

>  <Assigned label>
class 1

$$$$
>  <Molecule>
CC(C)[Si](C#Cc1ccc(Oc2ccccc2)cc1)(O[Si](C#Cc1ccc(Oc2ccccc2)cc1)(C(C)C)C(C)C)C(C)C

>  <Tested on>
Torsin-1A (Homo sapiens) (UniProt O14656)

>  <Assigned label>
class 1

$$$$
>  <Molecule>
NC(=O)N1C(=O)C2C(C1=O)C1C=C(c3ccc(CO)cc3)C2C(c2cccs2)N1Cc1cccc(OC(F)(F)F)c1 (configuration not stated)

>  <Tested on>
Torsin-1A (Homo sapiens) (UniProt O14656)

>  <Assigned label>
class 1

$$$$
>  <Molecule>
COc1ccc([Si](C)(C)[C@@H]2[C@@H](CCO)O[C@]3(C(=O)N(Cc4ccc(N(C=O)c5ccccc5)cc4)c4ccccc43)[C@H]2C)cc1

>  <Tested on>
Torsin-1A (Homo sapiens) (UniProt O14656)

>  <Assigned label>
class 0

$$$$
>  <Molecule>
CC1CC/C=C\[C@H]2OC34C=CCN(C(C)(C)C)C(=O)[C@H]3N(CCO)C(=O)[C@@H]4C2C(=O)O1 (some centres not stated)

>  <Tested on>
Torsin-1A (Homo sapiens) (UniProt O14656)

>  <Assigned label>
class 0

$$$$
>  <Molecule>
C=CCN1C(=O)[C@@]2(CC=C)N=C(c3ccc(OCCCO)cc3)O[C@H]2c2ccccc21

>  <Tested on>
Torsin-1A (Homo sapiens) (UniProt O14656)

>  <Assigned label>
class 1

$$$$
>  <Molecule>
CCOC(=O)C[C@H]1[C@H](OC(=O)c2ccc(C(=O)c3ccccc3)cc2)[C@@H](NC(=O)c2ccc3ccccc3n2)c2cc(OCCCO)ccc2N1C(=O)c1ccccc1

>  <Tested on>
Torsin-1A (Homo sapiens) (UniProt O14656)

>  <Assigned label>
class 0

$$$$

* * *

- Experimental protocol: small-molecule microarray binders of probe aEGFR, primary screen, biochemical, biotinylated probe, 635/667 nm fluorescence (AID 1097);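 further: probe is a biotinylated anti-EGFR antibody binding compounds printed on slides; score combines fluorescence near 667 nm and signal to noise of each spot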
- Condition parameters: higher = more signal
Overview of recorded composite z-score for various compounds

>  <Compound>
CC#CC(=O)Oc1ccccc1C=CC(=O)OCC

>  <composite z-score>
-0.0531

$$$$
>  <Compound>
CC(C)OC(=O)C=C1C[C@@H](c2ccccn2)O[C@@H](c2ccccn2)O1

>  <composite z-score>
0.0494

$$$$
>  <Compound>
NC(=O)NCC#Cc1ccc2c(c1)[C@]1(C(=O)N2)[C@H](C(N)=O)[C@H]2C(=O)O[C@H](c3ccccc3)[C@H](c3ccccc3)N2[C@@H]1c1ccc(O)cc1

>  <composite z-score>
-0.413

$$$$
>  <Compound>
CC(=O)NCCCC[C@@H]1NC(=O)[C@H]2C[C@@H](C(=O)NCCCCCCNC(=O)CS)[C@@H](c3ccc(O)cc3)N2C1=O

>  <composite z-score>
-0.258

$$$$
>  <Compound>
O=C1C2C=CC(C(O)c3cccc4ccccc34)N(Nc3ccccc3F)C2C(=O)N1c1ccccc1 (configuration not stated)

>  <composite z-score>
0.222

$$$$
>  <Compound>
COc1cc2c(cc1OC)CN(C(=O)[C@H]1[C@@H]3C(=O)O[C@@H](c4ccccc4)[C@@H](c4ccccc4)N3[C@@H](c3ccc(O)cc3)[C@]13C(=O)Nc1ccc(C#CCCO)cc13)CC2

>  <composite z-score>
-0.152

$$$$
>  <Compound>
CC(C)C[C@@H]1NC(=O)[C@@H]2C[C@H](C(=O)O)[C@H](c3cccc(OCCO)c3)N2C1=O

>  <composite z-score>
-0.229

$$$$
